The compounds listed here are annotated with their IC50.
target: class C enzyme AmpC (Enterobacter cloacae); assay: β-Lactamase inhibition, nitrocefin spectrophotometric assay
Sequence (P05364 21-381): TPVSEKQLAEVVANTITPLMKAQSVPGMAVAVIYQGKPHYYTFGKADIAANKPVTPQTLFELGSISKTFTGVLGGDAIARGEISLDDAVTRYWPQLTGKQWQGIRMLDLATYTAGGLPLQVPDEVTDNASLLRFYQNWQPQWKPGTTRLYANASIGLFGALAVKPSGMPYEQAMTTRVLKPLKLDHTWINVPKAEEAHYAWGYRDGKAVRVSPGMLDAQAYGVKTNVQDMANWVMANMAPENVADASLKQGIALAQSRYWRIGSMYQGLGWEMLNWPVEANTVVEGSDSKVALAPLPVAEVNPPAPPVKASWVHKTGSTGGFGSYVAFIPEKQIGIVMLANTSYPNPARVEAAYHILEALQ
RECORDED_ENDPOINT: IC50 (nM)

* O=C(O)C1=CS[C@@H]2/C(=C\c3cn4c5c(sc4n3)CCC5)C(=O)N12 | 2.4
* O=C(O)C1=CS[C@@H]2/C(=C\c3cn4c5c(sc4n3)COCC5)C(=O)N12 | 1.5
